Sourced from patent US20240391954A1

Biological target: human MC3R (Homo sapiens, UniProt P41968)
Construct: expressed in transfected cells; host or cells: HEK-293 cells stably expressing the GScAMP22F split-luciferase cAMP sensor (parent reporter line from Promega); MC3R clone generated in-house, G418 selection
Sequence (P41968 whole entry): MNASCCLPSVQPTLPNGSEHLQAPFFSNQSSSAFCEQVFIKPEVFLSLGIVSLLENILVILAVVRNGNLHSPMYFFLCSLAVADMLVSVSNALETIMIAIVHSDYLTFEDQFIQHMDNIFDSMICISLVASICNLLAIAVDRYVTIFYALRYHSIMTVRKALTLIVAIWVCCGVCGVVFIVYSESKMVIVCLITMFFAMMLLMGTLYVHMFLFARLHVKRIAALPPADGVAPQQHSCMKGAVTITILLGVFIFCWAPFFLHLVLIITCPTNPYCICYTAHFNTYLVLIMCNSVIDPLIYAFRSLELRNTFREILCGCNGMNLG
Assay: split-luciferase cAMP sensor assay, agonist mode (measurement window 1), hMC3R
Format: cell-based
Details: % maximal activation, agonist mode; read-out: MC3R cAMP % max activation
Positions of bridges follow the written chain, without caps; N, C: chain ends. Non-standard residues stand in square brackets, D forms with d. Residues, ends and D or L forms follow the SMILES beside them. Cit = NC(=O)NCCC[C@H](N)C(=O)O
Measured Emax accompanies every entry in the list below.
Give just the numeric value; % need not be written.

stdin: Any idea what Emax was measured for C[C@H]1NC(=O)CSC[C@@H](C(N)=O)NC(=O)[C@H](Cc2c[nH]c3ccccc23)NC(=O)[C@H](CCCNC(=N)N)NC(=O)[C@@H](Cc2ccccc2)NC(=O)[C@H](Cc2c[nH]cn2)NC1=O [CTX-1202] ?
stdout: 101

stdin: Name the recorded Emax for CC(=O)N[C@@H](CCCNC(=N)N)C(=O)N[C@H]1CSSC[C@@H](C(N)=O)NC(=O)[C@@H](Cc2c[nH]c3ccccc23)NC(=O)[C@H](CCCNC(=N)N)NC(=O)[C@@H](Cc2ccccc2)NC(=O)[C@H](CCCNC(N)=O)NC(=O)[C@@H](C)NC1=O [CTX-1286] (Ac-RC[dA][Cit][dF]R[dW]C-NH2; disulfide 2-8) .
stdout: 24
